- Study Target: T1, Human complement C4 protein (Millipore Sigma, Cat. 204886) (human, UniProt P0C0L4 20-675; P0C0L4 680-1446; P0C0L4 1454-1744, limits assumed, natural sulfotyrosines)
- T1 construct: mature
- T1 sequence (P0C0L4 20-675 limits assumed, form in doubt, chain 1 of 3): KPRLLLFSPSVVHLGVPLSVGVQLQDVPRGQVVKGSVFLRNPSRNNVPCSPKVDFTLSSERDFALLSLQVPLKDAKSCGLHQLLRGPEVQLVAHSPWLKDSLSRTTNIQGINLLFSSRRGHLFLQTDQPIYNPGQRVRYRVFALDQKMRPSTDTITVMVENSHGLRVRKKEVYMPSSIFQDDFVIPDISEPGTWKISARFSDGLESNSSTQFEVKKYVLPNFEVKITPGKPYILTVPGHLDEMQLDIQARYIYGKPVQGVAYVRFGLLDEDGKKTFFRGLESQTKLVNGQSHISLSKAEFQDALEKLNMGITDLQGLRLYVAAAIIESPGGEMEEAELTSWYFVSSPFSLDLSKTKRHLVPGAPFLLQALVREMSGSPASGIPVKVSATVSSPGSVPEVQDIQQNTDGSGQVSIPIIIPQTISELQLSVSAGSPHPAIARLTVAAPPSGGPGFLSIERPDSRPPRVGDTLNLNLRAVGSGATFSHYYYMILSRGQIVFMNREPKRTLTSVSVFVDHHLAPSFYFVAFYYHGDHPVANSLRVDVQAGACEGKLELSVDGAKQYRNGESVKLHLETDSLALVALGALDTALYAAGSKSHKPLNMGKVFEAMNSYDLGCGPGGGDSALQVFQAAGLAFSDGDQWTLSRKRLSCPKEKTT
- T1 sequence (P0C0L4 680-1446 limits assumed, form in doubt, chain 2 of 3): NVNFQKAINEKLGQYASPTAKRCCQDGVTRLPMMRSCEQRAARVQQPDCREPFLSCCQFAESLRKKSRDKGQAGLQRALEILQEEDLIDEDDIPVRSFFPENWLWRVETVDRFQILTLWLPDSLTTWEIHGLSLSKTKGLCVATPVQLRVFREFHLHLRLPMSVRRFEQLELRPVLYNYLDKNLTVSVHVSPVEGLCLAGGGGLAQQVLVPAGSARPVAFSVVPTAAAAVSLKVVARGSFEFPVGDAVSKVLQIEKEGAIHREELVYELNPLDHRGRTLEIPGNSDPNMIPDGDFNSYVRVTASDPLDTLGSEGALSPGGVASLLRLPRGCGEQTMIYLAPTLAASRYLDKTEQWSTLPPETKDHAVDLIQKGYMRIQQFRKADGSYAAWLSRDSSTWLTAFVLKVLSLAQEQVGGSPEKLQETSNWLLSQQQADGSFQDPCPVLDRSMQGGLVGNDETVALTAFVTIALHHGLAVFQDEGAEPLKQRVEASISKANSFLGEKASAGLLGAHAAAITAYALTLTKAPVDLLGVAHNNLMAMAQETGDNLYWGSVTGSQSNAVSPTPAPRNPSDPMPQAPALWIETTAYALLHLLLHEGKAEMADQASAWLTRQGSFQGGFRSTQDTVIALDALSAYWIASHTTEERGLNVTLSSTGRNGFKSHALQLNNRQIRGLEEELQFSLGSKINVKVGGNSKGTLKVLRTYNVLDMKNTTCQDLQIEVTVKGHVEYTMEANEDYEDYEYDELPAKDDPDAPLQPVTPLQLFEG
- T1 sequence (P0C0L4 1454-1744 limits assumed, form in doubt, chain 3 of 3): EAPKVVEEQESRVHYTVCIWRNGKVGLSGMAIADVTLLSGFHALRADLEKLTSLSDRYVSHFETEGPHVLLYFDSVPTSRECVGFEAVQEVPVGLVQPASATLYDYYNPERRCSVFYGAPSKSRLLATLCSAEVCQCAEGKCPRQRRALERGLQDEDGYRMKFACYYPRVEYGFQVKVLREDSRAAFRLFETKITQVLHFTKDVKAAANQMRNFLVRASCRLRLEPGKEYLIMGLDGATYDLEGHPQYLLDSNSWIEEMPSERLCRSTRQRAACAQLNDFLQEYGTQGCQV
- Assay: ELISA, 50 nM mAb

{"Binder": "03D01 (antibody, IgG4, V domains shown) VH: EVQLVQSGGGLVQPGGSLRLSCAATGFTVSRNYMTWVREAPGKGLEWVAGIYKSGTTSYIESVKGRFTISRDNSKNTLYLEMSRLRAEDTAVYYCAKSTSTWGQGTQVTVSS VL: DVVMTQSPVSLPVTLGQPASISCRSSRNLLYSNGNTYLNWFHQRPGQSPRRLIYKVSNQDSGVPDRFSGSGSGTDFTLKISRVEAEDVGVYYCMQGTHWPTTFGQGTRLEIK", "binding normalized to PSGL-1": 1.07}
{"Binder": "09D11 (antibody, IgG4, V domains shown) VH: QVQLVESGGGFIQPGGSLRLSCAASGLTFSNYAMTWVRQAPGKGLEWVSTISGGGGNTYYTDSVKGRFTISRDNSKNTLYLQMNSLKAEDTAVYRCAKGLAAALFDYWGQGTLVTVSS VL: DIVLTQSPDSLPVTPGEPASISCRSSRSLLHSNGHNFLAWYLQKPGQSPHLLIYLGSNRASGVPDRFSGSGSGTDFTLKISRVEAEDVGIYYCMQALQTPITFGQGTRLDIK", "binding normalized to PSGL-1": 0.32}
{"Binder": "03B03 (antibody, IgG4, V domains shown) VH: EVQLVQSGGGLVQPGGSLRLSCAATGFTVSRNYMTWVREAPGKGLEWVAGIYKSGTTSYTESVKGRFTISRDNSKNTLYLEMSRLRAEDTAVYYCAKSTSTWGQGTQVTVSS VL: DIVMTQSPLSLPVTLGQPASISCRASQSPGYSDGNTYLNWFQQRPGQSPRRLIYKVSNRDPGVPDRFSGSGSGTDFTLKISRVEAEDVGVYYCMQATHWPSFGQGTRLEIK", "binding normalized to PSGL-1": 0.94}
